pIC50 reference
# assayed_target: inducible NO synthase (iNOS) (Rattus norvegicus)
# procedure_details: Activity to inhibit inducible NO synthase (iNOS) derived from rat macrophages; conversion of [3H]-L-arginine to [3H]-L-citrulline
# Format: biochemical
# Parameters: iNOS was extracted from the macrophages which have been treated with lipopolysaccharide and interferon-γ; endogenous in cells; host or cells: rat peritoneal macrophages treated with lipopolysaccharide and interferon-γ
pIC50: −log10 of the molar value. Structures can show the parent of a compound that is named as a salt.
measurement_kind: pIC50

[
  {
    "molecule": "NC1=NC(OCCc2ccccc2)CCS1 (stereo not shown)",
    "measurement_kind": "pIC50",
    "numeric_value": 6.52
  },
  {
    "molecule": "NC1=N[C@@H](Cc2ccccc2)CCS1 [Example 10, hydrobromide]",
    "measurement_kind": "pIC50",
    "numeric_value": 6.22
  },
  {
    "molecule": "NC1=NC(OCc2ccccc2)CCS1 (stereo not shown)",
    "measurement_kind": "pIC50",
    "numeric_value": 6.22
  },
  {
    "molecule": "CC1CC(OCc2ccccc2)N=C(N)S1 (stereo not shown)",
    "measurement_kind": "pIC50",
    "numeric_value": 6.40
  },
  {
    "molecule": "CC1CCCSC(N)=N1 (stereo not shown)",
    "measurement_kind": "pIC50",
    "numeric_value": 7.15
  },
  {
    "molecule": "CC1CN=C(N)SC1 (stereo not shown) [Example 28, hydrobromide]",
    "measurement_kind": "pIC50",
    "numeric_value": 6.70
  },
  {
    "molecule": "NC1=NCCS1 [Comparative Example 1, 2-aminothiazoline, reference compound]",
    "measurement_kind": "pIC50",
    "numeric_value": 5.70
  },
  {
    "molecule": "CCOC1CC(C)SC(N)=N1 (stereo not shown)",
    "measurement_kind": "pIC50",
    "numeric_value": 7.05
  },
  {
    "molecule": "COC1CCSC(N)=N1 (stereo not shown)",
    "measurement_kind": "pIC50",
    "numeric_value": 8.00
  },
  {
    "molecule": "CCOC1CCSC(N)=N1 (stereo not shown)",
    "measurement_kind": "pIC50",
    "numeric_value": 7.52
  }
]

* * *

# assayed_target: inducible NO synthase (iNOS) (Rattus norvegicus, UniProt Q06518)
# procedure_details: Activity to inhibit inducible NO synthase (iNOS) derived from rat macrophages; conversion of [3H]-L-arginine to [3H]-L-citrulline
# Format: biochemical
# Parameters: iNOS was extracted from the macrophages which have been treated with lipopolysaccharide and interferon-γ; endogenous in cells; host or cells: rat peritoneal macrophages treated with lipopolysaccharide and interferon-γ
# cond: iNOS from peritoneal macrophages treated with lipopolysaccharide and interferon-γ, 150 µM L-arginine, 30 minutes at 37°C; read-out: IC₅₀
Structures can show the parent of a compound that is named as a salt.

[
  {
    "compound": "CC1(C)CCN=C(N)S1 [Example 29, hydrochloride]",
    "unit_label": "nM",
    "IC50": 200
  },
  {
    "compound": "CCCC[C@@H]1CCSC(N)=N1 [Example 5, hydrobromide]",
    "unit_label": "nM",
    "IC50": 40
  },
  {
    "compound": "CC(C)OC1CCSC(N)=N1 (stereo not drawn) [Example 20, fumarate]",
    "unit_label": "nM",
    "IC50": 30
  }
]
